# targetOrTestSystem: nociceptin receptor ORL1 (Homo sapiens)
# Construct: expressed in transfected cells
# assayText: Antagonism against nociceptin-elicited G protein activation (GTPγ[35S] binding, CHO/ORL1 membranes)
# Assay type: biochemical
# conditionDetails: 50 nM nociceptin, 200 pM GTPγ[35S], CHO/ORL1 membrane, 25° C. for 150 minutes
# Experimental: Pharmacological Test Example 2 (Antagonism Against Nociceptin-elicited G Protein Activation) CHO cells which stably represented a nociceptin receptor ORL1 were used to investigate the action of each tested compound against nociceptin-elicited G protein activation. A membrane prepared from the CHO/ORL1 cells, 50 nM nociceptin, 200 pM GTPγ[^35S] […]
Entries and their IC50

Record excerpt, results attached:
>  <molecule>
COC[C@]1(C(=O)c2nc3cc(C)c(N4CCN5CCC[C@H]5C4)cc3[nH]2)CC[C@](C)(O)CC1 [Example 53]

>  <IC50>
1 nM

$$$$
>  <molecule>
CCN1CCN(c2cc3[nH]c(C(=O)[C@]4(C)CC[C@@](C)(O)CC4)nc3cc2Cl)CC1 [Example 51]

>  <IC50>
0.65 nM

$$$$
>  <molecule>
CCN1CCN(c2cc3[nH]c(C(=O)[C@]4(C)CC[C@@H](NC(=O)OC)CC4)nc3cc2C)C(C)C1 (single isomer, unassigned) [Example 2(2S*)]

>  <IC50>
0.63 nM

$$$$
>  <molecule>
CCN1CCN(c2cc3[nH]c(C(=O)[C@]4(CC)CC[C@@H](NC(=O)OC)CC4)nc3cc2C)C(C)C1 (single isomer, unassigned) [Example 47(2S*)]

>  <IC50>
0.36 nM

$$$$

Fill in the blank: the reported IC50 of CCN1CCN(c2cc3[nH]c(C(=O)C4(C)CCN(C(C)=O)CC4)nc3cc2C)C(C)C1 (single isomer, unassigned) [Example 27(2S*)] is ____. 1.5 nM

Next up: CCN1CCN(c2cc3[nH]c(C(=O)[C@]4(CC)CC[C@@H](NC(=O)OC)CC4)nc3cc2Cl)C(C)C1 (single isomer, unassigned) [Example 15(2S*)] 0.42 nM

Next up: CCN1CCN(c2cc3[nH]c(C(=O)[C@]4(C)CC[C@@H](NC(=O)OC)CC4)nc3cc2Cl)C(C)C1 (single isomer, unassigned) [Example 1(2S*)] 0.82 nM

---

# targetOrTestSystem: nociceptin receptor ORL1 (Homo sapiens, UniProt P41146)
# Construct: expressed in transfected cells
# Sequence (P41146 whole entry): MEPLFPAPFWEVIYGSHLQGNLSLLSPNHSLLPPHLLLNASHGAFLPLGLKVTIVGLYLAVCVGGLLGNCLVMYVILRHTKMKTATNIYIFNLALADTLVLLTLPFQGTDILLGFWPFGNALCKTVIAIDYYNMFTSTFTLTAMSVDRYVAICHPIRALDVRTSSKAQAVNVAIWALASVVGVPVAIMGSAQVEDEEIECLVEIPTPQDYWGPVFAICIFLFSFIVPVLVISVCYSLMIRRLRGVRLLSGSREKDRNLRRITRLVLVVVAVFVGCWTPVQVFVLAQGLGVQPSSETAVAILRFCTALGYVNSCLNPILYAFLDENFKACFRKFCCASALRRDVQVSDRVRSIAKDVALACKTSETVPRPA
# assayText: Nociceptin receptor binding inhibition assay ([125I]Tyr14-Nociceptin, SPA, CHO/ORL1 membranes)
# conditionDetails: 50 pM [125I]Tyr14-Nociceptin, CHO/ORL1 membrane, 37° C. for 60 minutes; read-out: IC50 value, nociceptin receptor binding inhibition action
pIC50: −log10 of the molar value.
So basically: pIC50 at 9 or higher? That is label 1. Lower than 9? That is label 0.

Known results for compounds:
>  <compound>
CCN1CCN(c2cc3[nH]c(C(=O)N(C)C4CCCCC4)nc3cc2Cl)C(C)C1 (centres unmarked)

>  <qualitativeLabel>
label 0

$$$$
>  <compound>
CCN1CCN(c2cc3[nH]c(C(=O)[C@]4(C)CC[C@@H](NC(=O)OC)CC4)nc3cc2C)C(C)C1 (single isomer, unassigned)

>  <qualitativeLabel>
label 1

$$$$
>  <compound>
CCN1CCN(c2cc3[nH]c(C(=O)[C@]4(C)CC[C@@H](O)CC4)nc3cc2Cl)C(C)C1 (single isomer, unassigned)

>  <qualitativeLabel>
label 0

$$$$
>  <compound>
CCN1CCN(c2cc3[nH]c(C(=O)[C@]4(C)CC[C@@H](NC(=O)OC)CC4)nc3cc2Cl)C(C)C1 (single isomer, unassigned)

>  <qualitativeLabel>
label 1

$$$$

I'd appreciate it if you could say whether COC(=O)N[C@H]1CC[C@](C)(C(=O)c2nc3cc(Cl)c(N4CCN(CCO)CC4C)cc3[nH]2)CC1 (single isomer, unassigned) has pIC50 at least equal to 9. label 1

Next up: CCN1CCN(c2cc3[nH]c(C(=O)C4(C)CCN(C(C)=O)CC4)nc3cc2C)C(C)C1 (single isomer, unassigned) label 0

Next up: CCN1CCN(c2cc3[nH]c(C(=O)[C@]4(CC)CC[C@@H](NC(=O)OC)CC4)nc3cc2Cl)C(C)C1 (single isomer, unassigned) label 1

Next up: CCN1CCN(c2cc3[nH]c(C(=O)[C@]4(CC)CC[C@@H](NC(=O)OC)CC4)nc3cc2C)C(C)C1 (single isomer, unassigned) label 1
